Tested on: MS2 coat protein
PROTOCOL_NOTES: apparent KD of MS2 coat protein; higher = weaker reporter binding
CONDITION_NOTES: Eterna round: R107; input ligand: none
MEASURE: apparent KD of MS2 coat protein

Use the examples below as a reference point.
SEQUENCE_CHAIN	apparent KD of MS2 coat protein
GCGCUCGACAGAAGGAGCGGCGACGUCGGUGUCAGGAGGCACAUGAGGAUCACCCAUGUCAGCCAGGUAGGUCGCUGUCGAUCGC [Arquce]	37.3 nM
GGUCUCUGGAGCGAUACCAGCUUGAGUGUACUGGCCAGGUACAUGAGGAUCACCCAUGUAAGCCCUUGGCAGCGCUCCAGAGACC [#1 Exclusion - Theophylline B Attempt #15 (HarryS)]	9.21 nM
AAUAUAUAUCACGAACUGUGGUGUAUGUUGCGAGGACCGGUACGGCCGCCACUCGACCGGUGGUACAUGAGGAUCACCCAUGUUG [XTryp A #10]	57.2 nM

Ask: Endpoint output: apparent KD of MS2 coat protein of UGUUAUGUGGGAAGGAGCGCAUACUUCACAUGAGGAUCACCCAUGUCAAGACGUGAGUCAGUGCAGGUAGGUCGCCUAGUUAAGA [Same State - Arginine B (Freestyle 17)] . Value?
Result: 73.9 nM

Ask: Endpoint output: apparent KD of MS2 coat protein of UAUCCACAUGAGGAUCACCCAUGUAGGGAAGGAGCGGUGAUUUCACCAGGUAGGUCGCCUUGCUGAGGGUUGCCGGUGGAAUCGU [Exclusion - Arginine A (Freestyle 33)] . Value?
Result: 15.7 nM

---

Consider the following sequences and their measured apparent KD of K4 kissing-loop reporter readings.
Test system: K4 kissing-loop RNA reporter
PROTOCOL_NOTES: apparent KD of K4 kissing-loop reporter; higher = weaker reporter binding
CONDITION_NOTES: Eterna round: R107; input ligand: tryptophan 2.4 mM
Please answer using the number first and the unit second.

SEQUENCE_CHAIN	MEASURED_ON	MEAS_VALUE
AAUACGAAGCAGUGAUGUUGCUUAUGAGAAGGAGCGCACGAAAGUGCAGGUAGGUCGCUCAGCCAAGUGGACGAAAACGUCCACA [whbob_SS_Arginine_A_sa108]	K4 kissing-loop RNA reporter	90.6 nM
GGACGACAGUCGGCCGCCACUCACAGCCGAGUGAUGUUCGGGAUUGUAGCGGAGUGAUGUUUCGCGAGGACCGGGACUGCAGUCC [Same State Typtophan B GF 27]	K4 kissing-loop RNA reporter	141 nM

// below: apparent KD of K4 kissing-loop reporter requested for another sequence
Ask: Endpoint output: apparent KD of K4 kissing-loop reporter of GAGAGCCCUGGAGGAUAUGAGUCUAGUGAUGUUAGGCGGUCCAUGCGCGUGGCGCGUUAUGCCCUUUUAGAAGGCCAGGGCUCUC [#2 Exclusion - FMN B Attempt #18 (HarryS)] . Value?
Result: 89.7 nM

---

Consider the following sequences and their measured apparent KD of K4 kissing-loop reporter readings.
Tested on: K4 kissing-loop RNA reporter;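 also: bound reporter read as fluorescence of individual clusters on recovered sequencing chips by microscopy, with normalized cluster intensities fitted with a binding model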
PROTOCOL_NOTES: apparent KD of K4 kissing-loop reporter; higher = weaker reporter binding
CONDITION_NOTES: Eterna round: R107; input ligand: FMN 200 uM
Report the value in nM with no unit label.

Use the examples below as a reference point.
SEQUENCE_CHAIN	MEAS_VALUE
GCAACAUUGGUAGGAUAUCAUUCUGAGUGAUGUUCAGGGUUCAGCUAACGAAAGUUAGUUGUACCAUGAGAAGGGCUAAUGUUGC [Omei KL FMN B SS A v5]	425
GUUACGCAUGGAAGGAGCGCUCUCCGGCUUAUUAACACAGUGAUGUUGUGAUUUUGCCGAAAGCAGGUAGGUCGCCAUGUGUAAC [Ex Arginine B K4 11]	487
GUCAUGCGUUCAGGAUAUGGACCAAUUUAUAUUGCUUAUGCUGUGCCCUGUAUGGCAGUGAUGUUGCCAGAAGGGAGGGCAUGCA [Erbionvean]	116
AAAUUCUUUUUUUUAUUUAACUUUUCAGAAGGAGCGUGGUAGUACACAGGUAGGUCGCUGAAUUUUAGACUAGUGAUGUUAGUUA [JR_SSArginiA_Sub008]	130

Ask: Endpoint output: apparent KD of K4 kissing-loop reporter of UGUGAUGAGUAGAGUGAUGUUUUGAAGGAUACCAGAGUGUUGUUAUUCCCUUGGCAGCUUGAGUGAUGUUUGAUGUUGUUGUUGU [rcrrmullin] . Value?
Result: 328

Ask: Endpoint output: apparent KD of K4 kissing-loop reporter of UGUCAUUGGUCUGAUACCAGAAGAAAUCUGGAGUGAUGUUCCAAGUCGACAAAAUGUCGCUUCCCUUGGCAGCAGACCGAUGACU [TheoBS 23 #SwitchBubble 13 #StaticStem] . Value?
Result: 393

---

Test system: MS2 coat protein
PROTOCOL_NOTES: apparent KD of MS2 coat protein; designed switch direction (-1 OFF switch, 1 ON switch): -1; higher = weaker reporter binding
CONDITION_NOTES: input ligand: none
MEASURE: apparent KD of MS2 coat protein (nM)
Report the value in nM with no unit label.

Use the examples below as a reference point.
SEQUENCE_CHAIN	apparent KD of MS2 coat protein [nM]
UACAUGAGGAUCACCCAUGUUUUGUCGUGUAUGGUAUUUAUCUAGGAUAUCAUUGUAUUUAUUUAUGAGAAGGAGAAUAUUAAU [JMF's solution 96] (Eterna round: R96, puzzle: Exclusion NG 3)	32.6
GGCAUCGGAGGAUAUAUUUAUGGUGAUACCCGAAGCUUUCUACUUGAGGAUCACCCAAGUAGAAGGCCGAUGCC [jl-ex2.4.82 ViennaUCT mod] (Eterna round: R97, puzzle: Exclusion 2)	10.9
CACAUGUCAGGAUAUGGUCAAGACACAGAAUUAGCUGCGAGCCAGAAGGGACAUGAGGAUCACCCAUGUUCCUG [Eternabot (L1) Solution 58] (Eterna round: R97, puzzle: Exclusion 4)	16.3
CCUCGCAGGCAAGGAUAUCCUACAUUGUUCUGGCCCGGGCAUGCUACAUGAGGAUCACCCAUGUGGGAGAAGGUGCGCCACGGC [Design 31] (Eterna round: R96, puzzle: Exclusion NG 2)	42.2

Ask: What measured apparent KD of MS2 coat protein is associated with CGGUGCUUGUGGAAACAUGAGGAUCACCCAUGUUGAGUUAGCGAGGAUAUCGGUAACACAUGUCACGAGAAGGCGCGAACCAGA [Ex NG3 #33] (Eterna round: R96, puzzle: Exclusion NG 3) on MS2 coat protein?
Result: 16.2

---

System: MS2 coat protein
PROTOCOL_NOTES: apparent KD of MS2 coat protein; designed switch direction (-1 OFF switch, 1 ON switch): -1; higher = weaker reporter binding
CONDITION_NOTES: Eterna round: R95; input ligand: microRNA oligo, concentration not stated
Binary call on apparent KD of MS2 coat protein: label 1 from 0.03 µM upward, label 0 beneath that.

These recorded examples may help you get a feel for the data.
SEQUENCE_CHAIN	DISCRETE_LABEL
AGUACUAACACGCAAGUGUUAGUACAAUAAGCUUGUGAAACAUGAGGAUCACCCAUGUCCUCAUAAGCUCGUCUUAU [salish99_TOv2_r3_027] (puzzle: Sensor v3, turn-off variant 2)	label 1
CAUACUCAAGUCAGGAUAUAGAGUCGGAUACGGAUCUAGAAGGGACAUGAGGAUCACCCAUGUAGAGAGUAAAG [EX-4 Malc #25] (puzzle: Brourd's mod of Exclusion 4)	label 1

Ask: Is it the case that CUUUUGUGAGGAUAUCAGUAGUAAUACAAUAGUAUUACUACUGAGAAGGCACAUGAGGAUCACCCAUGUUCUUC [Ex4 344 Omei mod 2] (puzzle: Exclusion 4) has apparent KD of MS2 coat protein reaching or exceeding 0.03 µM?
Result: label 0

Ask: Is it the case that CCGGAUAUGCAGGAUAUCGAAUCGGAAACGAUUCGAGAAGGGUAUACAUGAGGAUCACCCAUGUGUCCUACCGG [Mat - Exclusion 6 - Eli Mod - D87] (puzzle: Exclusion 6) has apparent KD of MS2 coat protein reaching or exceeding 0.03 µM?
Result: label 0

---

Tested on: MS2 coat protein
PROTOCOL_NOTES: apparent KD of MS2 coat protein; designed switch direction (-1 OFF switch, 1 ON switch): -1; higher = weaker reporter binding
CONDITION_NOTES: input ligand: microRNA oligo, concentration not stated
MEASURE: apparent KD of MS2 coat protein
Please answer using the number first and the unit second.

SEQUENCE_CHAIN	MEASURED_ON	MEASURE	MEAS_VALUE
UAUCGGGACUGAGGAUAUUCGUUCGAACACGAAGAAGAAGGUAGUGUCAGGGACAUGAGGAUCACCCAUGUGAACUCAGUCCUA [JL ViennaUCT Erinle mod] (Eterna round: R96, puzzle: Exclusion NG 1)	MS2 coat protein	apparent KD of MS2 coat protein	33.7 nM

// below: apparent KD of MS2 coat protein requested for another sequence
Ask: Endpoint output: apparent KD of MS2 coat protein of UGUUGUUACGCAGGAUAUGUAUGAGGAUCACCCAUAAAACACACACUCCCAUGAGGAUCACCCAUGUAGAAGGGCGGGUUAACA [pwkr exNG2 2xF5 1xFMN.8] (Eterna round: R96, puzzle: Exclusion NG 2) . Value?
Result: 54.9 nM
